- Tested on: HEK293
- method: Cytotoxic Profiling of Annotated Libraries Using Quantitative High-Throughput Screening (AID 1296008); also: nearly all actives have a fitted effect of over 60% in size; also: potency is read from the fitted curve at half-maximal effect
- conditionLabel: Five cell lines viability, CellTiter-Glo ATP luminescence, 48-72 h
Records with an inconclusive call do not appear. The source made the active and inactive calls. Calls follow the shape of the dose curve; as a rule, active = well fitted inhibition curve with a large enough effect; inconclusive = small, poorly fitted or top-dose-only effect; inactive = flat fitted curve, though single readings scatter.
resultType: Potency

Worked cases, answers included:
CC(=O)O[C@H]1C[C@H](OC(C)=O)[C@]2(C)[C@H](CC[C@@]34O[C@@H]3C3=C(C)C(=O)O[C@@H]3C[C@H]42)C1(C)C	5.63 µM (active)
CC(C)(C)Oc1ccc(OCC2Cc3ccccc3CN2C(=O)c2cccc3ccccc23)cc1 (centres undefined)	13 µM (active)
Cc1nc(-c2cn3c(n2)-c2ccc(-c4cnn(C(C)(C)C(N)=O)c4)cc2OCC3)n(C(C)C)n1	6.51 µM (active)

Provide only the value of recorded Potency for C[C@H](CN(C)C)Oc1nc(Nc2cc3cccc(Cl)c3cn2)cnc1C#N 1.3 µM (active)

* * *

- method: Primary qHTS for inhibitors of nuclear receptor binding SET domain protein 2 (NSD2) in an isogenic RCH-ACV NSD2 p.E1099K mutant (9B) (AID 1645876); also: potency is read from the fitted curve at half-maximal effect; nearly all actives have a fitted effect of over 70% in size
- conditionLabel: RCH-ACV (leukaemia line) NSD2 E1099K (9B) viability, CellTiter-Glo, 72 h; series mostly up to 44.9 µM
Inconclusive results are not listed. Activity calls are given as the source filed them. Calls come from the whole dose curve; as a rule, active = well fitted inhibition curve with a large enough effect; inconclusive = small, poorly fitted or top-dose-only effect; inactive = flat fitted curve, though single readings scatter.
resultType: Potency

Name the recorded Potency of the item COC(=O)CC1OC(C)C2=C(O)c3c(O)cccc3C(=O)C23OC13 (stereo not given) in your answer. 2840 nM (active)

Specify Potency for CCC(=O)N1CCOc2c(cc(-c3ccc(OC)c(OC)c3)cc2OC[C@H]2CCCN(C)C2)C1 and stop. 8170 nM (active)

* * *

- Test system: CRL-7250
- method: Cytotoxic Profiling of Annotated Libraries Using Quantitative High-Throughput Screening (AID 1296008); also: nearly all actives have a fitted effect of over 60% in size; also: potency is read from the fitted curve at half-maximal effect
- conditionLabel: Five cell lines viability, CellTiter-Glo ATP luminescence, 48-72 h
Results filed as inconclusive are left out. Activity calls are given as the source filed them. Calls follow the shape of the dose curve; as a rule, active = well fitted inhibition curve with a large enough effect; inconclusive = small, poorly fitted or top-dose-only effect; inactive = flat fitted curve, though single readings scatter.
resultType: Potency

Observe how each entry below is paired with its result.
C=CC(=O)Nc1cccc(Nc2nc(Nc3ccc(OCCOC)cc3)ncc2F)c1	5.17 µM (active)
Cn1cc(-c2ccc(S(=O)(=O)n3ccc(/C=C/C(=O)Nc4ccccc4N)c3)cc2)cn1	9.2 µM (active)
C/C1=C/CCC2=CC(OC2=O)C(C)(C)/C=C/C1=O (configuration not stated)	2.31 µM (active)
CC(=O)OC1CC(C)C2(CCC3(CC(=O)OC3O)O2)C2(C)CCCC(C)(C)C12 (configuration not stated)	inactive
COc1cc(CCC2=NN=C(NC(=O)c3ccc(N4C[C@@H](C)N[C@@H](C)C4)cc3)C2)cc(OC)c1	10.3 µM (active)
c1cc(-c2cnn3cc(-c4ccc(N5CCNCC5)cc4)cnc23)c2cccnc2c1	inactive
CC(=O)OC1C(OC(=O)c2ccccc2)C2C(C)(C)CCC(OC(C)=O)C2(C)C23CCC(C)(C2)C(=O)CC13 (configuration not stated)	inactive
CC1CCCC[C@H]2C(=O)C=C[C@H](O)[C@@H]2CC(=O)O1 (some centres not stated)	8.2 µM (active)
Cc1cccc(CC(=O)N2CCc3c2ccc(-c2cn(C)c4ncnc(N)c24)c3F)n1	1.84 µM (active)
COc1ccc(N(C(=O)Nc2c(C)cccc2C)c2cc(Nc3ccc(N4CCN(C)CC4)cc3)ncn2)c(OC)c1	2.91 µM (active)

State Potency (CRL-7250) of COc1ccccc1OCCN1CC(COc2cccc3[nH]c4ccccc4c23)OCC1=O (configuration not stated) . inactive

Report value: Potency, system: CRL-7250, compound: FC(F)(F)c1ccc(/C=C/c2nc(COc3ccc(CCCCn4ccnn4)cc3)co2)cc1 0.0651 µM (active)

State Potency on CRL-7250. Entry: COC1CC(=O)C23C(=O)NC(Cc4c[nH]c5ccccc45)C2C(C)C2(C)OC2C3/C=C/CC(C)CC1O (configuration not stated) 5.02 µM (active)

# lookup: CRL-7250 Potency, key = CC#C[C@@H](CC(=O)O)c1ccc(OCc2ccc(CN3CCC4(C=Cc5ccccc54)CC3)s2)cc1 inactive

Lab note: CRL-7250 assay, enter Potency for COc1cc2c(cc1-c1c(C)noc1C)ncc1[nH]c(=O)n(C(C)c3ccccn3)c12 (configuration not stated) here 5.8 µM (active)

Would you please give the reported Potency of O=C(Nc1ccccc1Br)NC1CCN(c2ccc(C(F)(F)F)cn2)C1 (configuration not stated) with CRL-7250? inactive

Please report the measured Potency for O[C@@](Cc1ncc(CC2(C(F)(F)F)CC2)[nH]1)(c1ccc(-n2cccn2)cc1)C(F)(F)F tested on CRL-7250. inactive

Send back CRL-7250 Potency of CC(C)n1nc(C#Cc2ccccc2)c2c(N)ncnc21 only. 16.4 µM (active)

Name the value of Potency reported for COc1c(CCC(=O)O)cccc1O[C@@H]1O[C@H](CO)[C@@H](O)[C@H](O)[C@H]1O when tested on CRL-7250. inactive

Provide Potency, recorded with CRL-7250, of COc1c(C)cnc(Cn2cc(C#CCC(C)(C)O)c3c(Cl)nc(N)nc32)c1C 0.259 µM (active)

Lab note: CRL-7250 assay, enter Potency for N#Cc1cc(-c2ccnc(Nc3ccc(N4CCOCC4)cc3)n2)ccc1OC1CCOCC1 here 4.11 µM (active)
